Where do the numbers come from? From patent US12448369B2.

Each record here notes measured Ventricular EC25.
# Tested System: Porcine ventricle myofibrils (ventricular myosin ATPase) (Sus scrofa, UniProt P79293)
# Construct: Myofibrils from porcine cardiac muscle was isolated from the left ventricle of Yucatan minipigs; tissue Exemplar Genetics; host or cells: left ventricle of Yucatan minipigs, myofibrils prepared in house
# Sequence (P79293 whole entry): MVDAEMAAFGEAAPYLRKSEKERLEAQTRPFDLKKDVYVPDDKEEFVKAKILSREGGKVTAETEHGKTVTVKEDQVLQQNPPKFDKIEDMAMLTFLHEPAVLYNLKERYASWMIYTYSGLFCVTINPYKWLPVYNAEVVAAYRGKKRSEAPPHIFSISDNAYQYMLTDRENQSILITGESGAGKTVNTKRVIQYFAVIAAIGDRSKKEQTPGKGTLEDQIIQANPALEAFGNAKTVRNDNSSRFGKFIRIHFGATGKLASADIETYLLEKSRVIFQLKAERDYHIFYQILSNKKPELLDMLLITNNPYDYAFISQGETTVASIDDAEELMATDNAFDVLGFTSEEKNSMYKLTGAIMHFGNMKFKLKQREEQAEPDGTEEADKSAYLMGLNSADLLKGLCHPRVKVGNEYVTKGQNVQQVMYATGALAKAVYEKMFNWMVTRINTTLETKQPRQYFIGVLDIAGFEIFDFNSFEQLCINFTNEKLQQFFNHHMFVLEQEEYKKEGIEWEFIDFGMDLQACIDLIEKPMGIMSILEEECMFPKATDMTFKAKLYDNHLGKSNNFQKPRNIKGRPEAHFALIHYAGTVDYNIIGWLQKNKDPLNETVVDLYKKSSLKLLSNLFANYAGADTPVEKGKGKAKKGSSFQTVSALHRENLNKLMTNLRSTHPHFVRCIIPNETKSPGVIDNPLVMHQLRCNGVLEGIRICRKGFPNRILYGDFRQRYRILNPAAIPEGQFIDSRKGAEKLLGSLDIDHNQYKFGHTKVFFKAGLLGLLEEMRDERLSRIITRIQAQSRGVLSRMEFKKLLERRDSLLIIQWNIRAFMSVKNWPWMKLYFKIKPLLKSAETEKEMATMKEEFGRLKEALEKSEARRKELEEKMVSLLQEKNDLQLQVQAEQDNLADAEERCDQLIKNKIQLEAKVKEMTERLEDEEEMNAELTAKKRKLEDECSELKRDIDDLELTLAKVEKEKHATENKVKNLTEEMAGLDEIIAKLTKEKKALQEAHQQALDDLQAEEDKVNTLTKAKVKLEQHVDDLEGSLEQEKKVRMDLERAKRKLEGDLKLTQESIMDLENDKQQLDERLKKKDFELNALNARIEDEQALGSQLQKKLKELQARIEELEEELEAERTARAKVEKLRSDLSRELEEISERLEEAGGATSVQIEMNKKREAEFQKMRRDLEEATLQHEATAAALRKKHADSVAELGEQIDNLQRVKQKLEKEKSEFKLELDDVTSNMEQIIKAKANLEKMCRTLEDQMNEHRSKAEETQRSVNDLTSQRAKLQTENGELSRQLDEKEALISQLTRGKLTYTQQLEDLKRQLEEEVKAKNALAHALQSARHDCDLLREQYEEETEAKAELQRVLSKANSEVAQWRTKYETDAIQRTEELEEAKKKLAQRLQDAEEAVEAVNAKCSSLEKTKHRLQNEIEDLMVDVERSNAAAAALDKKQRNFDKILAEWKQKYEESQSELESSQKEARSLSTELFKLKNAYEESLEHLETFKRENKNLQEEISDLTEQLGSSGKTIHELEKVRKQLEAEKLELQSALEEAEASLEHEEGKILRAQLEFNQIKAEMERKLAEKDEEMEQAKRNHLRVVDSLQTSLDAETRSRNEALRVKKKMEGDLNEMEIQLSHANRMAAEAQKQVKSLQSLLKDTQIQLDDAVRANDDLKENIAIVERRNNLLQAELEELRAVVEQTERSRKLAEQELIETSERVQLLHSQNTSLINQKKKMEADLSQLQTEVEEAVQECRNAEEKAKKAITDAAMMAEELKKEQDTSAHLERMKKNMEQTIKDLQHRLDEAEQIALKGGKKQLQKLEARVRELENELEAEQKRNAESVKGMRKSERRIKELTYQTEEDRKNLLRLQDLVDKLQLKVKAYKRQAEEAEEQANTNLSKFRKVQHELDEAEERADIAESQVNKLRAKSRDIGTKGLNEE
# Protocol: Myofibril ATPase assay, porcine ventricle myofibrils
# Assay type: biochemical, porcine (Yucatan minipigs)
# Experimental Context: Y75 value (no ‡ mark); porcine ventricle myofibrils
Measurement Label: Ventricular EC25 (µM)

{"Compound": "Cc1c(C(F)(F)C(=O)NC(C)c2cccc(C#N)n2)c(=O)[nH]c2ccc(F)c(F)c12 (single isomer, unassigned)", "Val": 100.00}
{"Compound": "Cc1c(C2(C(=O)N[C@H](C)c3cc(C#N)ccn3)CC2)c(=O)[nH]c2ccc(F)cc12 (single isomer, unassigned)", "Val": 100.00}
{"Compound": "Cc1c(CC(=O)N[C@@H](C)c2ncc(C#N)cn2)c(=O)[nH]c2cc(F)ccc12", "Val": 76}
{"Compound": "Cc1c(CC(=O)N[C@H](C)c2ccc(C#N)nn2)c(=O)[nH]c2ccc(F)c(F)c12", "Val": 0.14}
{"Compound": "C[C@H](NC(=O)Cc1cc2cc(F)c(F)cc2[nH]c1=O)c1ncc(C#N)cn1 (single isomer, unassigned)", "Val": 100.00}
{"Compound": "Cc1c(CC(=O)N[C@H](C)c2cnc(C#N)nc2)c(=O)[nH]c2cc(F)c(F)cc12 (single isomer, unassigned)", "Val": 10.13}

====

# Tested on: Porcine atria myofibrils (atrial myosin ATPase)
# Protocol: Myofibril ATPase assay, porcine atria myofibrils
# Assay type: biochemical
# Experimental Context: ‡ Y125 value, not a Y75 value (125% activity relative to no compound); porcine atria myofibrils
Measurement Label: Atrial EC25

{"Compound": "Cc1c(C2(C(=O)N[C@H](C)c3cccc(C#N)n3)CC2)c(=O)[nH]c2ccc(F)c(F)c12 (single isomer, unassigned) [compound 2547]", "Val": "100.00‡ μM"}
{"Compound": "C[C@H](NC(=O)C(F)(F)c1cc2cc(F)ccc2[nH]c1=O)c1cccc(C#N)n1 (single isomer, unassigned) [compound 2582]", "Val": "100.00‡ μM"}
{"Compound": "Cc1c(C2(C(=O)N[C@H](C)c3nccc(C#N)n3)CC2)c(=O)[nH]c2ccc(F)c(F)c12 (single isomer, unassigned) [compound 2509]", "Val": "100.00‡ μM"}
{"Compound": "Cc1c(C2(C(=O)N[C@@H](C)c3cc(C#N)ccn3)CC2)c(=O)[nH]c2ccc(F)c(F)c12 (single isomer, unassigned) [compound 2540]", "Val": "100.00‡ μM"}
{"Compound": "Cc1c(C2(C(=O)N[C@@H](C)c3cc(C#N)ccn3)CC2)c(=O)[nH]c2ccc(F)cc12 (single isomer, unassigned) [compound 2578]", "Val": "100.00‡ μM"}
{"Compound": "CC(NC(=O)C1(c2cc3c(F)c(F)ccc3[nH]c2=O)CC1)c1cccc(C#N)n1 (single isomer, unassigned) [Compound 2570]", "Val": "100.00‡ μM"}
{"Compound": "Cc1c(CC(=O)N[C@H](C)c2ncc(C#N)cn2)c(=O)[nH]c2ccc(F)c(C3CC3)c12 (single isomer, unassigned) [compound 2059]", "Val": "100.00‡ μM"}
{"Compound": "C[C@H](NC(=O)Cc1cc2c(C#N)c(F)ccc2[nH]c1=O)c1ncc(C#N)cn1 (single isomer, unassigned) [compound 2018]", "Val": "100.00‡ μM"}

====

Below, each entry is listed with its recorded Skeletal EC25.
# Test system: Rabbit Psoas myofibrils (skeletal myosin ATPase)
# Protocol: Myofibril ATPase assay, rabbit psoas (skeletal) myofibrils
# Assay type: biochemical
# Experimental Context: Y75 value (no ‡ mark); rabbit psoas myofibrils

{"Compound": "Cc1c(C2(C(=O)N[C@@H](C)c3ncc(C#N)cn3)CC2)c(=O)[nH]c2ccc(F)c(C#N)c12 (single isomer, unassigned)", "Skeletal EC25 (µM)": 1.49}
{"Compound": "C[C@@H](NC(=O)Cc1cc2c(C(F)(F)F)c(F)ccc2[nH]c1=O)c1ncc(C#N)cn1 (single isomer, unassigned)", "Skeletal EC25 (µM)": 2.25}
{"Compound": "CCc1c(CC(=O)N[C@@H](C)c2ncc(C#N)cn2)c(=O)[nH]c2ccc(F)c(C)c12 (single isomer, unassigned)", "Skeletal EC25 (µM)": 0.11}
{"Compound": "C[C@@H](NC(=O)Cc1c(O)c2cc(F)c(F)cc2[nH]c1=O)c1ccc(C#N)cc1F", "Skeletal EC25 (µM)": 100.00}
{"Compound": "Cc1c(CC(=O)N[C@H](CO)c2ccc(C#N)cc2F)c(=O)[nH]c2ccc(F)c(C3CC3)c12", "Skeletal EC25 (µM)": 0.23}
{"Compound": "Cc1c(F)ccc2[nH]c(=O)c(CC(=O)N[C@@H](C)c3ncc(C#N)cc3F)c(C#N)c12", "Skeletal EC25 (µM)": 0.04}
{"Compound": "Cc1c(CC(=O)N[C@H](C)c2cnc(C#N)nc2)c(=O)[nH]c2ccc(F)cc12", "Skeletal EC25 (µM)": 0.53}

====

# Tested System: Porcine ventricle myofibrils (ventricular myosin ATPase) (Sus scrofa, UniProt P79293)
# Construct: Myofibrils from porcine cardiac muscle was isolated from the left ventricle of Yucatan minipigs; tissue Exemplar Genetics; host or cells: left ventricle of Yucatan minipigs, myofibrils prepared in house
# Protocol: Myofibril ATPase assay, porcine ventricle myofibrils
# Type: biochemical, porcine (Yucatan minipigs)
# Experimental Context: Y75 value (no ‡ mark); porcine ventricle myofibrils

{"Compound": "Cc1c(C(F)(F)C(=O)N[C@@H]2CCc3cc(C#N)cnc32)c(=O)[nH]c2ccc(F)cc12 (single isomer, unassigned)", "Ventricular EC25": "100.00 µM"}
{"Compound": "C[C@H](NC(=O)Cc1cc2c(F)c(F)ccc2[nH]c1=O)c1ccc(F)cc1F", "Ventricular EC25": "0.30 µM"}
{"Compound": "C[C@@H](NC(=O)Cc1cc2cc(F)c(F)cc2[nH]c1=O)c1cnc(C#N)nc1", "Ventricular EC25": "100.00 µM"}
{"Compound": "N#Cc1cnc2c(n1)CC[C@H]2NC(=O)Cc1cc2cc(F)c(F)cc2[nH]c1=O", "Ventricular EC25": "100.00 µM"}
{"Compound": "C[C@H](NC(=O)[C@H](C)c1cc2c(F)c(F)ccc2[nH]c1=O)c1ncc(C#N)cc1F (relative stereo)", "Ventricular EC25": "0.75 µM"}
{"Compound": "C[C@H](NC(=O)Cc1c(C#N)c2cc(F)c(F)cc2[nH]c1=O)c1ccc(C#N)cn1 (single isomer, unassigned)", "Ventricular EC25": "10.98 µM"}
{"Compound": "Cc1c(CC(=O)N[C@@H](CO)c2ccc(C#N)cc2F)c(=O)[nH]c2ccc(F)c(C3CC3)c12", "Ventricular EC25": "0.34 µM"}
{"Compound": "CC[C@H](NC(=O)Cc1c(C)c2c(C)c(F)ccc2[nH]c1=O)c1ncc(C#N)cn1 (single isomer, unassigned)", "Ventricular EC25": "0.64 µM"}
{"Compound": "Cc1c(C2(C(=O)N[C@@H](C)c3ncc(C#N)cn3)CC2)c(=O)[nH]c2cccc(C#N)c12 (single isomer, unassigned)", "Ventricular EC25": "18.26 µM"}
{"Compound": "C[C@H](NC(=O)[C@H](C)c1c(C(F)(F)F)c2cc(F)ccc2[nH]c1=O)c1ccc(F)cc1F (single isomer, unassigned) [compound 100]", "Ventricular EC25": "0.69 µM"}
{"Compound": "Cc1c(CC(=O)N[C@H](C)c2ncc(C#N)cn2)c(=O)[nH]c2cc(F)ccc12", "Ventricular EC25": "12 µM"}
{"Compound": "Cc1c(CC(=O)N[C@@H](C)c2ccc(C#N)nn2)c(=O)[nH]c2cc(F)c(F)cc12", "Ventricular EC25": "3.5 µM"}
{"Compound": "Cc1c(CC(=O)N[C@@H](C)c2ccc(C#N)cn2)c(=O)[nH]c2cc(F)ccc12", "Ventricular EC25": "89.23 µM"}
{"Compound": "Cc1c(C(F)(F)C(=O)N[C@@H](C)c2ncc(C#N)cn2)c(=O)[nH]c2ccc(F)c(C(F)(F)F)c12 (single isomer, unassigned)", "Ventricular EC25": "1.53 µM"}

====

# System: Rabbit Psoas myofibrils (skeletal myosin ATPase)
# Protocol: Myofibril ATPase assay, rabbit psoas (skeletal) myofibrils
# Type: biochemical
# Experimental Context: Y75 value (no ‡ mark); rabbit psoas myofibrils
# Experimental: Example 1. Myofibril ATPase Assay Myofibril ATPase assays are known in the art to be useful in evaluating small molecules for the treatment of HCM and other cardiac indications. Myosin ATPase activity is assessed by using a coupled reaction system, in which ADP generated by the myosin ATPase function is coupled to the disappearance of NADH through the pyruvate kinase/lactate dehydrogenase (PK-LDH) system. […]
The threshold is inclusive: Skeletal EC25 of exactly 400 nM counts as Met; values below receive Not met.

{"Molecule": "CNc1c(CC(=O)N[C@@H](C)c2ccc(F)cc2F)c(=O)[nH]c2ccccc12", "Category Label": "Not met"}
{"Molecule": "Cc1nc(C#N)ncc1[C@@H](C)NC(=O)Cc1cc2cc(F)c(F)cc2[nH]c1=O", "Category Label": "Met"}
{"Molecule": "C[C@@H](NC(=O)Cc1cc2cc(F)c(F)cc2[nH]c1=O)c1cnc(C#N)cn1", "Category Label": "Met"}
{"Molecule": "C[C@@H](NC(=O)Cc1cc2cc(F)c(F)cc2[nH]c1=O)c1cnc(C#N)nc1", "Category Label": "Met"}
{"Molecule": "Cc1cc(C#N)ccc1[C@H](C)NC(=O)Cc1c(O)c2cc(F)c(F)cc2[nH]c1=O", "Category Label": "Met"}
{"Molecule": "Cc1c(CC(=O)N[C@H](C)c2ncc(C#N)cn2)c(=O)[nH]c2ccc(F)cc12", "Category Label": "Met"}
{"Molecule": "Cc1c(CC(=O)N[C@@H](C)c2ncc(C#N)cn2)c(=O)[nH]c2ccc(F)c(C3CC3)c12 (single isomer, unassigned)", "Category Label": "Not met"}
{"Molecule": "Cc1c(CC(=O)N[C@H](C)c2ncc(C#N)cc2F)c(=O)[nH]c2ccc(Cl)cc12 (single isomer, unassigned)", "Category Label": "Met"}
{"Molecule": "Cc1c(CC(=O)N[C@@H](C)c2ccc(C#N)cn2)c(=O)[nH]c2cccc(F)c12", "Category Label": "Not met"}
{"Molecule": "Cc1c(CC(=O)N[C@H](C)c2ccc(F)cn2)c(=O)[nH]c2cccc(F)c12", "Category Label": "Met"}
{"Molecule": "N#Cc1cnc2c(c1)CC[C@@H]2NC(=O)C1(c2cc3c(F)c(F)ccc3[nH]c2=O)CC1 (single isomer, unassigned)", "Category Label": "Met"}
{"Molecule": "Cc1c(CC(=O)N[C@@H](C)c2ccc(C#N)cc2F)c(=O)[nH]c2ccc(F)c(C(F)(F)F)c12", "Category Label": "Not met"}
{"Molecule": "C[C@H](NC(=O)Cc1c(C(F)F)c2cc(F)ccc2[nH]c1=O)c1ccc(F)cc1F", "Category Label": "Not met"}
{"Molecule": "Cc1c(O)ccc2[nH]c(=O)c(CC(=O)N[C@H](C)c3ncc(F)cc3F)cc12 (single isomer, unassigned)", "Category Label": "Met"}
